- System: TAB165
- METHOD NOTES: qHTS profiling for inhibitors of Plasmodium falciparum proliferation (AID 504749); also: nearly all actives have a fitted effect of over 60% in size; also: potency is read from the fitted curve at half-maximal effect
- ASSAY SETUP: P. falciparum in erythrocytes, SYBR Green DNA, 72 h; series mostly up to 28.7 µM
Records with an inconclusive call do not appear. Active and inactive are the calls of the source. Calls follow the shape of the dose curve; as a rule, active = well fitted inhibition curve with a large enough effect; inconclusive = small, poorly fitted or top-dose-only effect; inactive = flat fitted curve, though single readings scatter.

| MOLECULE | Potency |
| --- | --- |
| Cc1cc2nc3c(=O)[nH]c(=O)nc-3n(CC(O)C(O)C(O)COP(=O)(O)O)c2cc1C (stereo not drawn) | inactive |
| C[C@H](CN1c2ccccc2Sc2cccnc21)N(C)C | 11.2 µM (active) |
| NC(=O)NC(CCC(=O)O)C(=O)O (stereo not drawn) | inactive |

* * *

- Test system: CP238
- METHOD NOTES: qHTS profiling for inhibitors of Plasmodium falciparum proliferation (AID 504749); also: nearly all actives have a fitted effect of over 60% in size
- ASSAY SETUP: P. falciparum in erythrocytes, SYBR Green DNA, 72 h; series mostly up to 28.7 µM
Records with an inconclusive call do not appear. The source made the active and inactive calls. Calls follow the shape of the dose curve; as a rule, active = well fitted inhibition curve with a large enough effect; inconclusive = small, poorly fitted or top-dose-only effect; inactive = flat fitted curve, though single readings scatter.
Outcome codes: yes (1) = active, no (0) = inactive

| COMPOUND | ASSIGNED LABEL |
| --- | --- |
| CC1(C(=O)O)CCC2(C)CCC3(C)C(=CC(=O)C4C5(C)CCC(O)C(C)(C)C5CCC43C)C2C1 (centres undefined) | no (0) |
| CC(C)C(=O)OCC(=O)[C@@]12OC(C3CCCCC3)O[C@@H]1CC1C3CCC4=CC(=O)C=C[C@]4(C)C3[C@@H](O)C[C@@]12C (some centres undefined) | yes (1) |
| CN(C)CC/C=C1\c2ccccc2COc2ccc(CC(=O)O)cc21 | no (0) |
| OCC1OC(O)C(O)C(O)C1O (centres undefined) | no (0) |
| C[C@]12CC[C@@H]3c4ccc(O)cc4CC[C@H]3[C@@H]1CCC2OC(=O)CCC1CCCC1 (some centres undefined) | no (0) |
| NC[C@@H]1O[C@H](OC2[C@@H](CO)O[C@@H](OC3[C@H](O)[C@H](N)C[C@H](N)[C@H]3OC3O[C@H](CO)[C@@H](O)[C@H](O)[C@@H]3N)[C@H]2O)C(N)[C@H](O)[C@@H]1O (some centres undefined) | no (0) |
| CC[C@H]1OC(=O)[C@H](C)C(=O)[C@H](C)[C@@H](OC2O[C@H](C)C[C@H](N(C)C)[C@@H]2O)[C@@](C)(OC)C[C@@H](C)C(=O)[C@@H](C)C2N(CCCCn3cnc(-c4cccnc4)c3)C(=O)O[C@@]21C (some centres undefined) | no (0) |
| C[C@]12C=CC(=O)N[C@@H]1CC[C@@H]1C2CC[C@]2(C)C(C(=O)Nc3cc(C(F)(F)F)ccc3C(F)(F)F)CC[C@@H]12 (some centres undefined) | no (0) |
| C=C(CC[C@@H](C)[C@H]1CCC2[C@]1(C)CC[C@]13C[C@@]14CCC(OC(=O)/C=C/c1ccc(O)c(OC)c1)C(C)(C)[C@@H]4CC[C@@]23C)C(C)C (some centres undefined) | no (0) |

* * *

- METHOD NOTES: AP1 Signaling Pathway (AID 357);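 also: ME-180 reporter cells stimulated with EGF at its EC50 level; % is scaled to controls: 0 for no effect and ±100 for the full control effect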
- ASSAY SETUP: ME-180 (cervical carcinoma) AP-1-bla reporter, EGF-induced, beta-lactamase ratio, 5 h; at 17.2 µM (top of the series) unless noted
Inconclusive results are not listed.
This listing pairs compounds with measured activity change, negative = inhibition.
REPORTED PROPERTY: activity change, negative = inhibition (%)

| COMPOUND | REPORTED PROPERTY | MEASURED |
| --- | --- | --- |
| CCCCNC(=O)c1cc2n(n1)C(C(F)(F)F)CC(c1ccccc1)N2 (stereo not given) | activity change, negative = inhibition | -14.9 |
| Cc1cc(=O)oc(C)c1C(=O)n1nc(C)c2c1C[C@@H]1[C@H]2C1(C)C | activity change, negative = inhibition | -2.2 |
| CC(NC(=O)NCCCC(=O)O)(C(F)(F)F)C(F)(F)F | activity change, negative = inhibition | 1.88 |
| CC[C@H](C)[C@@H]1O[C@]2(CC[C@@H]1C)C[C@H]1C[C@H](CC=C(C)[C@@H](O[C@@H]3C[C@H](OC)[C@H](O[C@@H]4C[C@H](OC)[C@H](O)[C@H](C)O4)[C@H](C)O3)[C@@H](C)C=CC=C3CO[C@@H]4[C@@H](O)C(C)=C[C@@H](C(=O)O1)[C@]34O)O2 | activity change, negative = inhibition | -26.8 |
| CC(C)OC(=O)C(C#N)c1nc2ccccc2nc1N1CCN(Cc2ccc3c(c2)OCO3)CC1 (stereo not given) | activity change, negative = inhibition | -10.5 |
